- ASSAYED SYSTEM: GAL4-PPAR γ chimeric nuclear receptor (human PPAR γ ligand binding domain) (Homo sapiens)
- Sequence (P37231 174-475 isoform P37231-2): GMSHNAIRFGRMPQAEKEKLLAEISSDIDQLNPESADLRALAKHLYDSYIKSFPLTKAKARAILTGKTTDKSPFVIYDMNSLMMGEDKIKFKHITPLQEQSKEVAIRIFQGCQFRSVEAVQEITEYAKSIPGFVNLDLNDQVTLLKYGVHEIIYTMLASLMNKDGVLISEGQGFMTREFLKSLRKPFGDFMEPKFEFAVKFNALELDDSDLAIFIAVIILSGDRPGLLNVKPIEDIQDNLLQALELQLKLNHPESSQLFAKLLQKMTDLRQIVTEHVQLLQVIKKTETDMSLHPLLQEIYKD
- PROTOCOL DETAILS: PPAR γ transactivation assay by transient gene transfer (GAL4-PPAR γ chimeric receptor, luciferase reporter, HEK293EBNA cells)
- COND: concentration showing 50% of efficacy (maximum activity rate relative to pioglitazone = 100%), 24 hr
So I've got a bunch of molecules here, and I need their EC50 values.
Just the number plus its unit, please.

The examples below pair each entry with its known result.
Exercise: EC50 for CCCc1nc2c(C(N)=O)cccc2n1Cc1ccc2c(c1)COc1cc(F)ccc1/C2=C(\C)c1noc(=O)[nH]1 [Compound 2b] ?
Key: 59.5 nM

Exercise: Continue with C/C(=C1/c2ccc(Cn3c(C4CCC4)nc4c(Cl)nccc43)cc2COc2cc(F)ccc21)c1noc(=O)[nH]1 [Compound 3b]
Key: 22.8 nM

Dear reader, for each entry below, please note its EC50.
1. COCc1nc2cc(Cl)ccn2c1Cc1ccc2c(c1)COc1cc(F)ccc1/C2=C(\C)c1noc(=O)[nH]1 [Compound 10e]
2. C/C(=C1/c2ccc(Cc3c(C4CCOC4)nc4cc(F)ccn34)cc2COc2cc(F)ccc21)c1noc(=O)[nH]1 (stereo not shown) [Compound 14j]

Key:
1: 5.3 nM; 2: 83 nM
